Every entry's value here was drawn from patent US20220289794A1.

Measured Broad-spectrum activity E. faecium (ATCC 700221) by item
test system: Enterococcus faecium ATCC 700221; details: E. faecium ATCC 700221
MEASURED PROPERTY: Broad-spectrum activity E. faecium (ATCC 700221)

- SUBSTANCE: "c[Arg-Arg-Arg-Arg-dip-Trp-dip] [IFX-098]"
  TARGET OR TEST SYSTEM: "Enterococcus faecium ATCC 700221"
  READING: 6.2
- SUBSTANCE: "c[Arg-arg-Arg-Arg-Dip-Dip-Dip] [IFX-065]"
  TARGET OR TEST SYSTEM: "Enterococcus faecium ATCC 700221"
  READING: 3.1
- SUBSTANCE: "c[Arg-Arg-Arg-Arg-dip-trp-dip] [IFX-100]"
  TARGET OR TEST SYSTEM: "Enterococcus faecium ATCC 700221"
  READING: 6.2
- SUBSTANCE: "c[Arg-Arg-Arg-Arg-dip-Trp-Dip] [IFX-090]"
  TARGET OR TEST SYSTEM: "Enterococcus faecium ATCC 700221"
  READING: 6.2
- SUBSTANCE: "c[Arg-Arg-arg-Arg-Dip-Dip-Dip] [IFX-064]"
  TARGET OR TEST SYSTEM: "Enterococcus faecium ATCC 700221"
  READING: 1.5
- SUBSTANCE: "c[arg-Arg-Arg-Arg-Dip-Trp-Dip] [IFX-094]"
  TARGET OR TEST SYSTEM: "Enterococcus faecium ATCC 700221"
  READING: 12.5
- SUBSTANCE: "c[Arg-Arg-Arg-Arg-Dip-trp-Dip] [IFX-089]"
  TARGET OR TEST SYSTEM: "Enterococcus faecium ATCC 700221"
  READING: 12.5
- SUBSTANCE: "c[Arg-Arg-Arg-Arg-dip-Dip-Dip] [IFX-062]"
  TARGET OR TEST SYSTEM: "Enterococcus faecium ATCC 700221"
  READING: 3.1
- SUBSTANCE: "c[Arg-Arg-Arg-arg-Dip-Dip-Dip] [IFX-063]"
  TARGET OR TEST SYSTEM: "Enterococcus faecium ATCC 700221"
  READING: 1.5
- SUBSTANCE: "c[Arg-Arg-arg-Arg-Dip-Trp-Dip] [IFX-092]"
  TARGET OR TEST SYSTEM: "Enterococcus faecium ATCC 700221"
  READING: 12.5
- SUBSTANCE: "c[Arg-Arg-Arg-Arg-Dip-Dip-dip] [IFX-060]"
  TARGET OR TEST SYSTEM: "Enterococcus faecium ATCC 700221"
  READING: 1.5
- SUBSTANCE: "c[Arg-Arg-Arg-Arg-Dip-dip-Dip] [IFX-061]"
  TARGET OR TEST SYSTEM: "Enterococcus faecium ATCC 700221"
  READING: 3.1
- SUBSTANCE: "c[Arg-Arg-Arg-arg-Dip-Trp-Dip] [IFX-091]"
  TARGET OR TEST SYSTEM: "Enterococcus faecium ATCC 700221"
  READING: 6.2
- SUBSTANCE: "c[Arg-Arg-Arg-Arg-Dip-Trp-dip] [IFX-088]"
  TARGET OR TEST SYSTEM: "Enterococcus faecium ATCC 700221"
  READING: 12.5
- SUBSTANCE: "c[Arg-arg-Arg-Arg-Dip-Trp-Dip] [IFX-093]"
  TARGET OR TEST SYSTEM: "Enterococcus faecium ATCC 700221"
  READING: 6.2
- SUBSTANCE: "c[Arg-Arg-Arg-Arg-naI-trp-naI] [IFX-143]"
  TARGET OR TEST SYSTEM: "Enterococcus faecium ATCC 700221"
  READING: 3.1
- SUBSTANCE: "c[arg-Arg-Arg-Arg-Dip-Dip-Dip] [IFX-066]"
  TARGET OR TEST SYSTEM: "Enterococcus faecium ATCC 700221"
  READING: 3.1
